- System: 327498-153-R-J2-PDC complex spheroid growth, % test/control
- experiment description: Anticancer human tumor 327498-153-R-J2-PDC patient-derived uterine carcinosarcoma cell line growth inhibition [Asc]; active = viability on the fitted dose curve at most 10% of control; inactive = the rest
- experimental parameters: second compound 0.316 µM; first compound 10 µM
Just give me one of these, please: t for active, f for inactive

Asked: Call for entry C#Cc1c(F)ccc2cc(O)cc(-c3ncc4c(N5CC6CCC(C5)N6)nc(OCC56CCCN5CC(F)C6)nc4c3F)c12 (stereo not drawn) + CNC(C)C(=O)NC1CN(S(=O)(=O)c2cccc(S(=O)(=O)N3CCC4CCC(C(=O)NC(c5ccccc5)c5ccccc5)N4C(=O)C(NC(=O)C(C)NC)C3)c2)CCC2CCC(C(=O)NC(c3ccccc3)c3ccccc3)N2C1=O :
Given back: f

Asked: Call for entry C=CC(=O)N1CCN(c2nc(=O)n(-c3c(C)ccnc3C(C)C)c3nc(-c4c(O)cccc4F)c(F)cc23)C(C)C1 (stereo not drawn) + CNC(C)C(=O)NC1CN(S(=O)(=O)c2cccc(S(=O)(=O)N3CCC4CCC(C(=O)NC(c5ccccc5)c5ccccc5)N4C(=O)C(NC(=O)C(C)NC)C3)c2)CCC2CCC(C(=O)NC(c3ccccc3)c3ccccc3)N2C1=O :
Given back: f

Asked: Call for entry O=C(c1cc(Cc2n[nH]c(=O)c3ccccc23)ccc1F)N1CCN(C(=O)C2CC2)CC1 + Cc1c(S(C)(=O)=O)c(-c2cc(F)cc(N3CCN(c4ccc(NS(=O)(=O)c5ccc(NC(CCN6CCC(C(=O)OCCCP(=O)(O)O)CC6)CSc6ccccc6)c(S(=O)(=O)C(F)(F)F)c5)cc4)CC3)c2)c(-c2ccc(Cl)cc2)n1C(C)C :
Given back: t

Now turn to the next compound.
Asked: Call for entry C=C(F)C(=O)N1CCN(c2nc(OCC3CCCN3C)nc3c2CCN(c2cccc4cccc(Cl)c24)C3)CC1CC#N (stereo not drawn) + CNC(C)C(=O)NC1CN(S(=O)(=O)c2cccc(S(=O)(=O)N3CCC4CCC(C(=O)NC(c5ccccc5)c5ccccc5)N4C(=O)C(NC(=O)C(C)NC)C3)c2)CCC2CCC(C(=O)NC(c3ccccc3)c3ccccc3)N2C1=O :
Given back: t

====

- Test system: 327498-153-R-J2-PDC complex spheroid growth, % test/control
- experiment description: Anticancer human tumor 327498-153-R-J2-PDC cell line growth inhibition [Asc];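 note: spheroids exposed to compound for 7 days after 3 days of growth; 100% = DMSO vehicle control wells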
- experimental parameters: second compound 0.316 µM; first compound 0.00316 µM; stronger effect = lower value
Catalogue of viability, T/C readings, one per entry.

The cases that follow already have their viability, T/C on record.
Asked: Quick one: viability, T/C for Cn1ncnc1[C@H]1c2n[nH]c(=O)c3cc(F)cc(c23)N[C@@H]1c1ccc(F)cc1 + Cc1c(S(C)(=O)=O)c(-c2cc(F)cc(N3CCN(c4ccc(NS(=O)(=O)c5ccc(NC(CCN6CCC(C(=O)OCCCP(=O)(O)O)CC6)CSc6ccccc6)c(S(=O)(=O)C(F)(F)F)c5)cc4)CC3)c2)c(-c2ccc(Cl)cc2)n1C(C)C ?
Given back: 86.9%

Asked: Quick one: viability, T/C for CCN1CCN(Cc2ccc(Nc3ncc(F)c(-c4cc(F)c5nc(C)n(C(C)C)c5c4)n3)nc2)CC1 + CNC(C)C(=O)NC1CN(S(=O)(=O)c2cccc(S(=O)(=O)N3CCC4CCC(C(=O)NC(c5ccccc5)c5ccccc5)N4C(=O)C(NC(=O)C(C)NC)C3)c2)CCC2CCC(C(=O)NC(c3ccccc3)c3ccccc3)N2C1=O ?
Given back: 110%

Let us examine a further case.
Asked: Quick one: viability, T/C for CNC(C)C(=O)NC1CN(S(=O)(=O)c2cccc(S(=O)(=O)N3CCC4CCC(C(=O)NC(c5ccccc5)c5ccccc5)N4C(=O)C(NC(=O)C(C)NC)C3)c2)CCC2CCC(C(=O)NC(c3ccccc3)c3ccccc3)N2C1=O (stereo not drawn) + Cc1c(S(C)(=O)=O)c(-c2cc(F)cc(N3CCN(c4ccc(NS(=O)(=O)c5ccc(NC(CCN6CCC(C(=O)OCCCP(=O)(O)O)CC6)CSc6ccccc6)c(S(=O)(=O)C(F)(F)F)c5)cc4)CC3)c2)c(-c2ccc(Cl)cc2)n1C(C)C ?
Given back: 93.1%
